- target_entity: Dual specificity testis-specific protein kinase 2 (Homo sapiens); further: in the data inactive means no Kd found up to 30 µM
- Sequence (Q96S53 whole entry): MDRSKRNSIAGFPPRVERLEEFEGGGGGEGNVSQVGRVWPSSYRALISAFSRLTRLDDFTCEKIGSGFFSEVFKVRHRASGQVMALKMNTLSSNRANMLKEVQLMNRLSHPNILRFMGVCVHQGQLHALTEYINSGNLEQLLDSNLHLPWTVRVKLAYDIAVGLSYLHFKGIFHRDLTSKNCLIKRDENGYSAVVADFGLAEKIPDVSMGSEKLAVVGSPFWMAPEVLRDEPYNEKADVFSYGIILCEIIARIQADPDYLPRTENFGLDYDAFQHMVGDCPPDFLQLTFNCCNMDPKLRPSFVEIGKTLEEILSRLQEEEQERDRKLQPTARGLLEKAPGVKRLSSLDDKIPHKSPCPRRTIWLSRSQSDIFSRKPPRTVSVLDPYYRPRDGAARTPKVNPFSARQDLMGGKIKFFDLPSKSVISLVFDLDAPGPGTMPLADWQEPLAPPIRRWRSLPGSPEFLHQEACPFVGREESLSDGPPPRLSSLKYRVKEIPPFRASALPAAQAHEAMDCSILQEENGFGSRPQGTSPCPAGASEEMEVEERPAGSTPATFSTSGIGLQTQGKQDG
Activity calls are given as the source filed them.
Measured Kd by item

Known results for molecules:
Cc1nc2cc(-c3nn(C(C)C)c4ncnc(N)c34)ccc2o1 ... 0.018 µM
Cc1nc(Nc2n[nH]c3c2CN(C(=O)N[C@H](CN(C)C)c2ccccc2)C3(C)C)c2sccc2n1 [PF-03758309] ... > 30 µM (inactive)
COc1cc(Nc2ncc3c(n2)-c2ccc(Cl)cc2C(c2c(F)cccc2OC)=NC3)ccc1C(=O)O [ALISERTIB] ... > 30 µM (inactive)
C[C@@H](Oc1cc(-n2cnc3ccc(CN4CCN(C)CC4)cc32)sc1C(N)=O)c1ccccc1C(F)(F)F [GSK-461364] ... > 30 µM (inactive)
O=C(NOCCO)c1cc(CN2OCCCC2=O)c(F)c(F)c1Nc1ccc(I)cc1F [RO-4987655] ... > 30 µM (inactive)

What does the data say about its Kd? Entry: Cc1csc(-c2nnc(Nc3ccc(Oc4ncccc4-c4ccnc(N)n4)cc3)c3ccccc23)c1 [AMG-900]
> 30 µM (inactive)

What does the data say about its Kd? Entry: CCS(=O)(=O)c1cccc(-c2cc(C(=O)NC3CCN(C)CC3)c(C)c3[nH]c4ncc(C)cc4c23)c1 [TAK-901]
> 30 µM (inactive)

What does the data say about its Kd? Entry: Cc1cc(Nc2ncnc3ccc(NC4=NC(C)(C)CO4)cc23)ccc1Oc1ccn2ncnc2c1 [TUCATINIB]
> 30 µM (inactive)

What does the data say about its Kd? Entry: Cc1[nH]c(/C=C2\C(=O)Nc3ccccc32)c(C)c1CCC(=O)O [ORANTINIB]
> 30 µM (inactive)

What does the data say about its Kd? Entry: COCC(=O)NC/C=C/c1ccc2ncnc(Nc3ccc(Oc4ccc(C)nc4)c(C)c3)c2c1 [CP-724714]
> 30 µM (inactive)

What does the data say about its Kd? Entry: CNC(=O)c1nn(C)c2c1C(C)(C)Cc1cnc(Nc3ccc(N4CCN(C)CC4)cc3)nc1-2 [MILCICLIB]
> 30 µM (inactive)

What does the data say about its Kd? Entry: COc1ccc(S(=O)(=O)N(C(C)=O)c2ccccc2/C=C/c2cc[n+]([O-])cc2)cc1 [HMN-214]
> 30 µM (inactive)

What does the data say about its Kd? Entry: Cc1cccc(-c2nn3c(c2-c2ccnc4ccc(C(N)=O)cc24)CCC3)n1 [GALUNISERTIB]
> 30 µM (inactive)

* * *

- target_entity: Aurora kinase B (Homo sapiens); further: in the data inactive means no Kd found up to 30 µM
- Sequence (Q96GD4 whole entry): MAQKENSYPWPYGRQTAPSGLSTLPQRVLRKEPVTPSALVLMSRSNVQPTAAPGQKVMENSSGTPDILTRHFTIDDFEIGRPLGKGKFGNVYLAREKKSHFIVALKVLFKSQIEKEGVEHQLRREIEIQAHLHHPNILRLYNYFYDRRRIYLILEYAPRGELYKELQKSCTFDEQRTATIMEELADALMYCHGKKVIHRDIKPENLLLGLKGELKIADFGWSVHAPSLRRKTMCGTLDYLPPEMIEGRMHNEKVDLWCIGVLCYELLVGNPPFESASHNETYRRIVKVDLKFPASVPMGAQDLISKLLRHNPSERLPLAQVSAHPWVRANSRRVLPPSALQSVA
Calls of active or inactive are those of the source.
experimental_readout: Kd

CN1CCN(CCOc2cc(OC3CCOCC3)c3c(Nc4c(Cl)ccc5c4OCO5)ncnc3c2)CC1 [SARACATINIB] ... > 30 µM (inactive)
Cc1nc2cc(-n3ncc(C(=O)c4cc5ccccc5[nH]4)c3N)ccc2[nH]1 [FGFR INHIBITOR DEBIO 1347] ... > 30 µM (inactive)
O=C(Nc1nc2cccc(-c3ccc(CN4CCS(=O)(=O)CC4)cc3)n2n1)C1CC1 [FILGOTINIB] ... > 30 µM (inactive)
CNC(=O)c1cccc2cc(Oc3ccnc4cc(OCC5(N)CC5)c(OC)cc34)ccc12 [LUCITANIB] ... 22.9 µM (active)
C=CC(=O)N1CCC[C@H](n2c(=O)n(-c3ccc(Oc4ccccc4)cc3)c3c(N)ncnc32)C1 ... > 30 µM (inactive)
Cc1nc(Nc2n[nH]c3c2CN(C(=O)N[C@H](CN(C)C)c2ccccc2)C3(C)C)c2sccc2n1 [PF-03758309] ... 2.08 µM (active)
O=C(Nc1c[nH]nc1-c1nc2cc(CN3CCOCC3)ccc2[nH]1)NC1CC1 [AT-9283] ... 0.017 µM (active)
Cc1csc(-c2nnc(Nc3ccc(Oc4ncccc4-c4ccnc(N)n4)cc3)c3ccccc23)c1 [AMG-900] ... 0.02 µM (active)

What does the data say about its Kd? Entry: `C[C@H]1CNCCCN1S(=O)(=O)c1cccc2cncc(F)c12`
1.15 µM (active)

What does the data say about its Kd? Entry: CC(C)(C)c1nc(-c2cccc(NS(=O)(=O)c3c(F)cccc3F)c2F)c(-c2ccnc(N)n2)s1 [DABRAFENIB]
> 30 µM (inactive)

What does the data say about its Kd? Entry: CCn1cc(-c2ccnc3[nH]c(-c4cccc(CN(C)C)c4)cc23)c(-c2ccc(NC(=O)N(C)C)cc2)n1 [GSK-1070916]
0.371 µM (active)

Data credit: ChEMBL document CHEMBL3991601
